I'd be grateful if you could share measured IC50 for these entries.
- Test system: MDA-MB-231
- experimental-details: cells
- details: Homo sapiens, MDA-MB-231, 72 h
- Description: Cytotoxicity against human MDA-MB-231 cells assessed as cell growth inhibition incubated for 72 hrs by MTT assay
One number for each entry, in µM.

compound: Cc1ccc(C(C)C)c(OCc2cn(-c3ccc(F)cc3)nn2)c1
measured-on: MDA-MB-231
IC50 [µM]: 32.6

compound: Cc1ccc(C(C)C)c(OCc2cn(-c3ccccc3)nn2)c1
measured-on: MDA-MB-231
IC50 [µM]: 45.1

compound: Cc1cccc(-n2cc(COc3cc(C)ccc3C(C)C)nn2)c1
measured-on: MDA-MB-231
IC50 [µM]: 31.2

Consider the following items and state reported IC50 for each.
1. CC/C(=C(\c1ccccc1)c1ccc(OCCN(C)C)cc1)c1ccccc1 [TAMOXIFEN]
2. Cc1ccc(C(C)C)c(OCc2cn(-c3ccc(O)cc3)nn2)c1

1. 15
2. 30.4

Working through the 8 compounds below one at a time, give IC50 for each.
1. Cc1ccc(C(C)C)c(OCc2cn(-c3ccc([N+](=O)[O-])cc3)nn2)c1
2. COc1ccc(-n2cc(COc3cc(C)ccc3C(C)C)nn2)cc1
3. Cc1ccc(C(C)C)c(OCc2cn(-c3cccc4c(-n5cc(COc6cc(C)ccc6C(C)C)nn5)cccc34)nn2)c1
4. Cc1ccc(C(C)C)c(OCc2cn(-c3ccccc3Cl)nn2)c1
5. Cc1ccc(C(C)C)c(OCc2cn(-c3cccc(Cl)c3)nn2)c1
6. O=c1[nH]cc(F)c(=O)[nH]1 [FLUOROURACIL]
7. Cc1ccc(C(C)C)c(OCc2cn(-c3cccc(C(=O)O)c3)nn2)c1
8. Cc1ccc(C(C)C)c(OCc2cn(-c3ccccc3C)nn2)c1

41
45.3
22.1
26.6
45.2
25.3
11.4
10.5
